Each record here notes measured pIC50.
systemTested: Caspase-5 (Homo sapiens)
Construct: mixing the compounds with the respective active caspases; purchased BioVision K155-100
Sequence (P51878 137-327 limits assumed): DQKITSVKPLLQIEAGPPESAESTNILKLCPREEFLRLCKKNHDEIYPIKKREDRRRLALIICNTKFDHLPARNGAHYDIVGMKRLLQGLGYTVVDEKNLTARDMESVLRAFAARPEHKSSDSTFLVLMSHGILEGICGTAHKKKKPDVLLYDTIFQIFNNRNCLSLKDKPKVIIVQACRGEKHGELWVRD
Sequence (P51878 347-434 limits assumed): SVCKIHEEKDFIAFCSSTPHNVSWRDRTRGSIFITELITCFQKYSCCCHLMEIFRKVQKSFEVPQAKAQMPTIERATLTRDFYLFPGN
assayComment: Caspase-5 inhibitor screening assay (BioVision kit, WEHD-AFC)
Assay type: biochemical
conditionSummary: read-out: IC50 Casp5
pIC50: −log10 of the molar value.

Take a look at these entries with their results.
CC(C)[C@H](NC(=O)OCc1ccccc1)C(=O)N[C@H](/C=C/S(C)(=O)=O)CC(=O)O
< 4.00
CC(C)[C@H](NC(=O)OCc1ccccc1)C(=O)N[C@H](/C=C(\Cl)S(C)(=O)=O)CC(=O)O
< 4.00

Shifting focus to the compound that follows.
What does the record list as pIC50 for `CS(=O)(=O)/C=C/[C@H](CC(=O)O)NC(=O)[C@H]1CCC(=O)N1` ?
< 4.00

---

Each record here notes measured inhibition at 100 µM.
systemTested: Caspase-10 (Homo sapiens)
Construct: mixing the compounds with the respective active caspases; purchased BioVision K160-100
Sequence (Q92851 220-415 limits assumed): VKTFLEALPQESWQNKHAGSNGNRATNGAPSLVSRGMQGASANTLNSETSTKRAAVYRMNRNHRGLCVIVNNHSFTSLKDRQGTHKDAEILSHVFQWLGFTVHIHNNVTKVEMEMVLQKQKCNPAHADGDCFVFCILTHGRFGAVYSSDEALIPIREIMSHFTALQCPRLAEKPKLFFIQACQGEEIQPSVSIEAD
Sequence (Q92851 416-521 limits assumed): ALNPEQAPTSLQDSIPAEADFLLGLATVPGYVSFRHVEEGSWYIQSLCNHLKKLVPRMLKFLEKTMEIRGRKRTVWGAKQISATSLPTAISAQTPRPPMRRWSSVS
assayComment: Caspase-10 inhibitor screening assay (BioVision kit, AEVD-AFC)
Type: biochemical
conditionSummary: 100 uM; read-out: % Inhibition at 100 uM Casp10
Provide the reading as a plain figure in %.

CS(=O)(=O)/C=C/[C@H](CC(=O)O)NC(=O)C1CCCN1C(=O)[C@@H](NC(=O)[C@H](CC(=O)O)NC(=O)OCc1ccccc1)C1CC1 (stereo in doubt) [Compound 28]
99

What does the record list as inhibition at 100 µM for CC(C)(C)[C@@H](NC(=O)[C@H](CC(=O)O)NC(=O)OCc1ccccc1)C(=O)N1CC[C@@H]1C(=O)N[C@H](/C=C/S(C)(=O)=O)CC(=O)O [Compound 32] ?
100

What does the record list as inhibition at 100 µM for CS(=O)(=O)/C=C/[C@H](CC(=O)O)NC(=O)[C@H](CCC(=O)O)NC(=O)c1ccc2ccccc2n1 [Compound 18] ?
0

What does the record list as inhibition at 100 µM for CCOC(=O)/C=C/[C@H](CC(=O)O)NC(=O)[C@H]1CCCN1C(=O)[C@@H](NC(=O)c1ccc2ccccc2n1)C(C)(C)C [Compound 118] ?
97

What does the record list as inhibition at 100 µM for CC(C)(C)OC(=O)CC[C@H](NC(=O)OC(C)(C)C)C(=O)N[C@H](/C=C/S(C)(=O)=O)CC(=O)OC(C)(C)C [Compound 21] ?
0

What does the record list as inhibition at 100 µM for CC(C)[C@H](NC(=O)[C@@H](NC(=O)[C@H](CC(=O)O)NC(=O)OCc1ccccc1)c1ccccc1)C(=O)N[C@H](/C=C/S(C)(=O)=O)CCC(=O)O [Compound 84, Z-Asp-Phg-Val-Glu methyl vinyl sulfone] ?
0

What does the record list as inhibition at 100 µM for CC(C)[C@H](NC(=O)[C@H](Cc1cn(C)c2ccccc12)NC(=O)[C@H](CC(=O)O)NC(=O)OCc1ccccc1)C(=O)N[C@H](/C=C/S(C)(=O)=O)CC(=O)O [Compound 36] ?
98

What does the record list as inhibition at 100 µM for CC(C)(C)[C@H](NC(=O)c1ccc2ncccc2n1)C(=O)N1CCCC1C(=O)N[C@H](/C=C/S(C)(=O)=O)CC(=O)O (stereo in doubt) [Compound 8] ?
90

What does the record list as inhibition at 100 µM for CC(C)[C@H](NC(=O)[C@H](CCC(=O)O)NC(=O)[C@H](Cc1c[nH]c2ccccc12)NC(=O)OCc1ccccc1)C(=O)N[C@H](/C=C/S(C)(=O)=O)CC(=O)O [Compound 40, Z-Trp-Glu-Val-Asp-methyl vinyl sulfone] ?
99

What does the record list as inhibition at 100 µM for CC(C)[C@H](NC(=O)[C@@H](N)Cc1ccc(O)cc1)C(=O)N[C@@H](C)C(=O)N[C@H](/C=C/S(C)(=O)=O)CC(=O)O [Compound 42, Tyr-Val-Ala-Asp methyl vinyl sulfone] ?
79
